# System: CD69
# assay.details: Induction of CD69 in human whole blood
# Format: cell-based
# condition.context: Homo sapiens, 17 h, 100% set to 1 uM of resiquimod, average where assay performed multiple times, read-out: hWB CD69 EC50
pEC50: −log10 of the molar value.
Criterion: pEC50 meeting or surpassing 8. Met: Yes. Not met: No.

# compound, tested.target, group.label
rows = [
    ("CCC[C@@H](CCO)Nc1nc(N)nc2cnn(Cc3ncc(C4CCN(C(C)C)CC4)cc3OC)c12", "CD69", "Yes"),
    ("CCCCNc1nc(N)nc2cnn(Cc3cc(F)c(N4CCN(C(=O)CNCCS(C)(=O)=O)CC4)cc3OC)c12", "CD69", "No"),
    ("CCCCNc1nc(N)nc2cnn(Cc3ncc(C4CC(C)(C)NC(C)(C)C4)cc3OC)c12", "CD69", "No"),
    ("CCC[C@@H](CCO)Nc1nc(N)nc2cnn(Cc3ncc(C4CCN(CC(C)(C)O)CC4)cc3OC)c12", "CD69", "Yes"),
    ("COc1cc(C2CCN(C3CNC3)CC2)cnc1Cn1ncc2nc(N)nc(NCc3cc(C)on3)c21", "CD69", "No"),
    ("CCC[C@@H](CCO)Nc1nc(N)nc2cnn(Cc3cnc(C4CCN(C)CC4)cc3OC)c12", "CD69", "Yes"),
    ("CCCCNc1nc(N)nc2cnn(Cc3cc(F)c(N4CCN(C(=O)CN5CCC[C@H]5CO)CC4)cc3OC)c12", "CD69", "No"),
    ("CCCCNc1nc(N)nc2c(C)nn(Cc3ncc(C4CCN(C)CC4)cc3OC)c12", "CD69", "No"),
    ("CCC[C@@H](CCO)Nc1nc(N)nc2cnn(Cc3ncc(C4CCN(C)CC4)cc3OC)c12", "CD69", "Yes"),
    ("COc1cc(C2CCN(C(=O)CCN(C)C)CC2)cnc1Cn1ncc2nc(N)nc(NCc3cc(C)on3)c21", "CD69", "No"),
    ("CCCCNc1nc(N)nc2cnn(Cc3ncc(C4CCN(C(=O)CC(C)(C)O)CC4)cc3OC)c12", "CD69", "No"),
    ("CCCCNc1nc(N)nc2c(Cl)nn(Cc3ncc(C4CCN(C5CCOCC5)CC4)cc3OC)c12", "CD69", "No"),
    ("CCC[C@@H](CCO)Nc1nc(N)nc2cnn(Cc3ncc(C4CCN(C5COC5)CC4)cc3OC)c12", "CD69", "Yes"),
    ("COc1cc(C2CCN(C3CCOCC3)CC2)cnc1Cn1ncc2nc(N)nc(NCC3CC4(CC4)C3)c21", "CD69", "No"),
    ("CCC[C@@H](CCO)Nc1nc(N)nc2cnn(Cc3ncc(C4CCCCN4)cc3OC)c12 (stereo partly drawn)", "CD69", "Yes"),
    ("CCCCNc1nc(N)nc2cnn(Cc3ncc(C4CCN(CC(=O)N(C)C)CC4)cc3OC)c12", "CD69", "Yes"),
    ("CCC[C@@H](CCO)Nc1nc(N)nc2cnn(Cc3ncc(C4CCCCCN4)cc3OC)c12 (mixture of isomers)", "CD69", "Yes"),
    ("COc1cc(C2CCN(C)CC2)cnc1Cn1ncc2nc(N)nc(NCC3CC4(CC4)C3)c21", "CD69", "Yes"),
    ("CCCCNc1nc(N)nc2cnn(Cc3ncc(C4CCN(C=O)CC4)cc3OC)c12", "CD69", "No"),
    ("CCC[C@@H](CCO)Nc1nc(N)nc2cnn(Cc3ncc(C4CCN(CCN(C)C)CC4)cc3OC)c12", "CD69", "Yes"),
]

----------
Property: pEC50; scope: individual compounds
# tested.target: human TLR7 (Homo sapiens, UniProt Q9NYK1)
# Sequence (Q9NYK1 27-1049): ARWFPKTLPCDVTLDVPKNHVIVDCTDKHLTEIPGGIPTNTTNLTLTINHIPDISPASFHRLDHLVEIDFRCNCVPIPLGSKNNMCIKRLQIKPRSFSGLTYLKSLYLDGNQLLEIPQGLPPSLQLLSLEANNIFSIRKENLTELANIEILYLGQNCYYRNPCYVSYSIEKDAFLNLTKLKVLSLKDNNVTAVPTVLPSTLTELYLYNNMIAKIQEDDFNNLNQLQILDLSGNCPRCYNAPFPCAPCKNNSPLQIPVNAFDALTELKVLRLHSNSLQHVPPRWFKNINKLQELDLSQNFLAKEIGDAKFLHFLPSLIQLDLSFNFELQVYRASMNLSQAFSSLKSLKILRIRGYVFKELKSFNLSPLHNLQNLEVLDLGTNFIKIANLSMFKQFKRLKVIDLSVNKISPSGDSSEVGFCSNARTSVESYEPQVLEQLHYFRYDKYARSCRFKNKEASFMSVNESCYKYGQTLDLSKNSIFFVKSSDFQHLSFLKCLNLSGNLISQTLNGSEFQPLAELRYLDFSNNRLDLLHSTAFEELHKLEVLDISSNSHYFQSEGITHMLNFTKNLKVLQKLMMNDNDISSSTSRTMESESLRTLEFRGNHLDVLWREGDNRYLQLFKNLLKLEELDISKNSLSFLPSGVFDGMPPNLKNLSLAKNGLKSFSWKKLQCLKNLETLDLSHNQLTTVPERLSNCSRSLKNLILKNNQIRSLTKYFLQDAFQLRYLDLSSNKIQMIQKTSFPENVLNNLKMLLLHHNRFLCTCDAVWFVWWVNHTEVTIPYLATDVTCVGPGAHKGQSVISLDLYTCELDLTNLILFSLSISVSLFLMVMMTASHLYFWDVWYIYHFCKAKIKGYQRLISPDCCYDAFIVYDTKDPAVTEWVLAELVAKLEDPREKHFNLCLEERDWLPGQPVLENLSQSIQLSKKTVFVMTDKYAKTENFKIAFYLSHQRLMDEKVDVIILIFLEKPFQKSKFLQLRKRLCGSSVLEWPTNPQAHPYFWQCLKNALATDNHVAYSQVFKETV
# assay.details: Human TLR7 agonist activity assay (HEK-Blue TLR7 SEAP reporter)
# condition.context: HEK-Blue TLR7 cells, 18 h treatment, average where assay performed multiple times, read-out: hTLR7 Agonism EC50
pEC50: −log10 of the molar value.

# compound, pEC50
rows = [
    ("CCC[C@@H](CCO)Nc1nc(N)nc2cnn(Cc3ncc(N4CCNCC4)cc3OC)c12 [Compound 171]", 6.51),
    ("CCCCNc1nc(N)nc2cnn(Cc3ncc(C4CCN(C(=O)CC(C)(C)O)CC4)cc3OC)c12 [Compound 110]", 6.46),
    ("CCCCNc1nc(N)nc2c(C)nn(Cc3ncc(C4CCN(C5CCOCC5)CC4)cc3OC)c12 [Compound 121]", 6.22),
    ("CCCCNc1nc(N)nc2cnn(Cc3ncc(C4CCN(C5CNC5)CC4)cc3OC)c12 [Compound 115]", 6.35),
    ("CCC[C@@H](CCO)Nc1nc(N)nc2cnn(Cc3ncc(C4CCN(C)CC4)cc3OC)c12 [Compound 134]", 7.85),
    ("CCC[C@@H](CCO)Nc1nc(N)nc2cnn(Cc3ncc(C4CCN(C5CCNCC5)CC4)cc3OC)c12 [Compound 214]", 6.50),
    ("CCCCNc1nc(N)nc2cnn(Cc3cc(F)c(N4CCN(C(=O)CNC5CCOCC5)CC4)cc3OC)c12 [Compound 195]", 7.27),
]

----------
# Test system: CD69
# assay.details: Induction of CD69 in human whole blood
# Assay type: cell-based
# condition.context: Homo sapiens, 17 h, 100% set to 1 uM of resiquimod, average where assay performed multiple times, read-out: hWB CD69 EC50
Recorded EC50 by entry

# compound, EC50, nM
data = [
    ("CCCCNc1nc(N)nc2cnn(Cc3ncc(C4CCN(C(=O)CCN(C)C)CC4)cc3OC)c12", 14.5),
    ("CCC[C@@H](CCO)Nc1nc(N)nc2cnn(Cc3ccc(C4CNCCN4)cc3OC)c12 (stereo partly shown)", 7.2),
    ("CCCCNc1nc(N)nc2cnn(Cc3ncc(C4CCNCC4)cc3OC)c12", 9.3),
    ("CCC[C@@H](CCO)Nc1nc(N)nc2cnn(Cc3nnc(C4CCN(C(C)C)CC4)cc3OC)c12", 9.9),
]
